Test system: p-IKKa levels in L363 (NIK translocated multiple myeloma) cells
MEASUREMENT NOTES: Assay 2: Effect of compounds on p-IKKa levels in L363 (NIK translocated multiple myeloma) cells
Format: cell-based
ASSAY SETUP: Homo sapiens, L-363, 6 h, read-out: Assay 2 IC50 (nM), p-IKKa (Ser 176/180) in BAFF stimulated L363 cells with MG132, 6 h; average if tested more than once
Below, each of the compounds is paired with its reported IC50 value.
MEASUREMENT NAME: IC50

COMPOUND	VALUE OBSERVED
CN1CC[C@@](O)(c2cc(-c3cccc(-c4ccnc(Nc5cnc6c(c5)COCC6)n4)n3)no2)C1=O	< 50 nM
CN1CC[C@@](O)(c2cc(-c3cccc(-c4ccnc(NC5CCOc6ncccc65)n4)n3)no2)C1=O (mixture of isomers)	50 to 500 nM
CN1CC[C@@](O)(c2cc(-c3cccc(-c4ccnc(NC5(C)CC5)n4)n3)no2)C1=O	50 to 500 nM
CN1CC[C@@](O)(c2cc(-c3cccc(-c4ccnc(NC5(C6CC6)CC5)n4)n3)no2)C1=O	50 to 500 nM
CN1CC[C@@](O)(c2cc(-c3cccc(-c4ccnc(N5CCn6nc(N)cc6C5)n4)c3)no2)C1=O	> 500 nM
CC1OCCn2ncc(Nc3nccc(-c4cccc(-c5cc([C@]6(O)CCN(C)C6=O)on5)n4)n3)c21 (single isomer, unassigned)	< 50 nM
CN1CC[C@@](O)(c2cc(-c3cccc(-c4ccnc(Nc5ccnnc5)n4)n3)no2)C1=O	> 500 nM
